B1: glmS ribozyme (parent)
chain: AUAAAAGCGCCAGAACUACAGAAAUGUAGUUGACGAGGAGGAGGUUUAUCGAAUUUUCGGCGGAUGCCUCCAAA

Variants of: B1
Assay: KM; higher = weaker cofactor use; RNA array
Conditions: with glucosamine-6-phosphate
PROPERTY MEASURED: KM (µM)
Unit µM implied. Number only.

Would you please look over these solved cases?
AUAAAAGCGCCAGAACUACAGAAAUGUAGUUGACGAGGAGGGGGUUUAUCGAAGUUUCGGCGGAUGCCUCCAAA [A42G U54G]; 2110
AUAAAAGCGCCAGAACUACAGAAAUGUAGUUGACGAGGUGGAGGUUUAUCGAAUUUUCGGCGGAUCACUCCAAA [A39U G66C C67A]; 1570
AUAAAAGCGCCAGAACUACAGAAAUGUAGUUGACGAGGAGGAGUAUUAUCGAAUUUUCGGCGGAUGCCUCCAAA [G44U U45A]; 1820

Prompt line: Which KM value is on record for AUAAAAGCGCCAGAAAUACAGAAAUGUAGUGGACGAGGAGGAGGUUUAUCGAAUUUUCGGCGGAUGCCUCCAAA [C16A U31G] ?
Response line: 1280

Prompt line: Which KM value is on record for AUAAAAGCGCCUGAACUACAGAAAUGUAGUUGACGAGGAGGAGGUCUAUCGAAUUUUCGGCGGAUGCCUCCAAA [A12U U46C] ?
Response line: 2700

Prompt line: Which KM value is on record for AUAAAAGCGCCAGAACUACAGAAAUGUAGUUGACGAGGAGGAGGUUUAUCGAAUUUUCGGCGGAUGCCUGUAAA [C70G C71U] ?
Response line: 401

Prompt line: Which KM value is on record for AUAAAAGCGCCAGAACUACAGAAAUGUAGUUGACGAGGAGGAGGAUUAUCGAAUUUUCGGCGGACGCCUCCAAA [U45A U65C] ?
Response line: 1770

Prompt line: Which KM value is on record for AUAAAAGCGCCAGAACUACAGAAAUGUAGUUGACGAGGCGGAGGUUUAUCGAGUUUUCGGCGGAUGCCUCCAAA [A39C A53G] ?
Response line: 1890

Prompt line: Which KM value is on record for AUAAAAGCGACAGAACUACAGAAAUGUAGUUGACGAGGAGGAGGUUUAUCUAAUUUUCGGCGCAUGCCUCCAAA [C10A G51U G63C] ?
Response line: 731

Prompt line: Which KM value is on record for AUAAAAGCGCCAGAACUACAGAAAUGUAGUUGACGAGGAGGGGGUUUAUCGAAUUUUCGGCGGAUGCCCCCAAA [A42G U69C] ?
Response line: 599

Prompt line: Which KM value is on record for AUAAAAGCGCCAGAACUACAGAAAUGUAGUUGACGAGGAGGAGGUUUAUCGAGUUUACGGCGGAUGCCUCCAAA [A53G U57A] ?
Response line: 3400

Prompt line: Which KM value is on record for AUAAAAGCGCCAGAACUACAGAAAUGUAGUUGACGAGGAGGAGGUUUGUCGAAUAUUCGGCGGAUGCCUCCAAA [A48G U55A] ?
Response line: 1160

Prompt line: Which KM value is on record for AUAAAAGCGCCGGAACUACAGAAAUGUAGUUGACGAGGAGGAGGUUUAUCGAAUUUUCGGCCGAUGCCUCCAAA [A12G G62C] ?
Response line: 151

Prompt line: Which KM value is on record for AUAAAAGCGCCAGUACUACAGAAAUGUAGUUGACGAGGAGGAGGUUUAUCGAAAUUUCGGCGGAUGCCUCCAAA [A14U U54A] ?
Response line: 1560

Prompt line: Which KM value is on record for AUAAAAGCGCCAGAACUACAGAAAUGUAGUUGACGAGGUGAAGGUUUAUCGAAUUUUCGGCGGAUGCCUCCAAA [A39U G41A] ?
Response line: 651

Prompt line: Which KM value is on record for AUAAAAGCGCCAGAACUACAGAAAUGUAGUUGACGAGGAGGAGGUUCAUCGAAAUUUCGGCGGAUGCCUCCAAA [U47C U54A] ?
Response line: 1630

Prompt line: Which KM value is on record for AUAAAAGCGCCAGAACUACAGAAAUGUAGUUGACGAGGAGGAUGUUUAUCGAAUUUUCGGCGGAAGCCUCCAAA [G43U U65A] ?
Response line: 5670

Prompt line: Which KM value is on record for AUAAAAGCGCCAGAACUACAGAAAUGUAGUCGACGAGGAGGAGGUUAAUCGAAUUCUCGGCGGAUGCCUCCAAA [U31C U47A U56C] ?
Response line: 5360

Prompt line: Which KM value is on record for AUAAAAGCGCCAGAACUACAGAAAUGUAGGUAACGAGGAGGAGGUUUAUCGAAUUUUCGGCGGAUGCCUCCAAA [U30G G32A] ?
Response line: 4720

Prompt line: Which KM value is on record for AUAAAAGCGCCAGAACUACAGAAAUGUAGUUGACGAGGAGGAGGUUUAUCGAAUUUUCGGCGGAUUCUUCCAAA [G66U C68U] ?
Response line: 1260
